Test system: wheat (Triticum aestivum)
protocol text: Test A pre-/postemergence: wheat
Assay type: in vivo
study conditions: Postemergence, 500 g ai/ha; visual rating on 0 to 100 scale (0 no effect, 100 complete control), approximately ten days
Consider the following compounds; for each one, report its Wheat plant response rating.
One number for each entry.

compound	measured
COc1nn(-c2cccc(F)c2)nc1Cc1ccnc(C(F)(F)F)c1 [Compound 139]	40
COc1nn(-c2ccc(C(F)(F)F)cc2)nc1C(C)(O)c1ccnc(C(F)(F)F)c1 (stereo not drawn) [Compound 79]	0
Cc1nn(-c2ccc(F)cc2)nc1Cc1cccc(C(F)(F)F)c1 [Compound 157]	20
Cc1nn(-c2ccc(Cl)nc2)nc1C(=O)c1cccc(C(F)(F)F)c1 [Compound 72]	0

Lab note: each compound below needs its Wheat plant response rating filled in.
1. Cc1nn(-c2ccc(F)c(F)c2)nc1Cc1ccnc(C(F)(F)F)c1 [Compound 55]
2. Fc1ccc(-n2nc(Cc3ccnc(C(F)(F)F)c3)c(OC(F)F)n2)cc1 [Compound 25]
3. Cc1nn(-c2nc(Cl)ns2)nc1C(=O)c1cccc(C(F)(F)F)c1 [Compound 59]
4. Cc1nn(-c2ccc(C(F)(F)F)cn2)nc1Cn1cnc(C(F)(F)F)n1 [Compound 8]
5. Cc1nn(-c2ccc(F)cc2)nc1Oc1ccnc(C(F)(F)F)n1 [Compound 101]
6. CON=C(c1cccc(C(F)(F)F)c1)c1nn(-c2ccnc(C(F)(F)F)c2)nc1C [Compound 140]
7. Cc1nn(-c2cccc(C(F)(F)F)c2)nc1Oc1cc(C(F)(F)F)nn1C [Compound 64]
8. Cc1nn(-c2ccc(F)cc2)nc1Cn1cc(C(F)(F)F)nc1Cl [Compound 35]

Response:
[40, 60, 0, 20, 10, 20, 0, 60]

Lab note: each compound below needs its Wheat plant response rating filled in.
1. Cc1nn(-c2ccc(F)cc2)nc1Oc1cc(C(F)(F)F)nn1C [Compound 126]
2. FCc1nn(-c2ccc(F)cc2)nc1Oc1ccnc(C(F)(F)F)c1 [Compound 160]
3. CCc1nn(-c2ccc(C(F)(F)F)cc2)nc1Cn1cnc(C(F)(F)F)c1Cl [Compound 121]
4. Cc1nn(-c2ccc(C(F)(F)F)cc2)nc1Cn1c(Cl)nc(C(F)(F)F)c1Cl [Compound 11]
5. Cc1nn(-c2ccccn2)nc1C(=O)c1cccc(C(F)(F)F)c1 [Compound 60]
6. COc1nn(-c2ccc(F)cc2)nc1C(=O)c1ccnc(C(F)(F)F)c1 [Compound 24]

Response:
20
50
0
0
0
10
